Reference for the values: ChEMBL document CHEMBL1151230

test system: A2780; test: Cytotoxicity against human A2780 cells; format: functional, cell-based
# IC50 annotations
Only the number, expressed in µg/mL, is required.

C[C@H]1[C@H](C)CC[C@]2(C(=O)O)CC[C@]3(C)C(=CC[C@@H]4[C@@]5(C)CC[C@H](O)C(C)(C)[C@@H]5CC[C@]43C)[C@H]12: 9.2

Input: Which measured IC50 value corresponds to CC1(C)C=C2[C@H]3CC[C@@H]4[C@@]5(C)CCC(=O)[C@](C)(CO)[C@@H]5CC[C@@]4(C)[C@]3(C)CC[C@@]2(C(=O)O)CC1 ?
Output: 15.9

---

Entries and their IC50 values follow.
tested on: A2780; assay: Cytotoxicity against human A2780 cells; assay type: functional, cell-based
Your answer should be a plain number; it is taken to be in µg/mL.

// solved cases for IC50 follow
CC1(C)C=C2[C@H]3CC[C@@H]4[C@@]5(C)CCC(=O)[C@](C)(C=O)[C@@H]5CC[C@@]4(C)[C@]3(C)CC[C@@]2(C(=O)O)CC1: 0.7
CC(=O)OC[C@@]1(C)C(=O)CC[C@@]2(C)[C@H]1CC[C@]1(C)[C@@H]2CC[C@@H]2C3=CC(C)(C)CC[C@]3(C(=O)O)CC[C@]21C: 11.6
CC1(C)C=C2[C@H]3CC[C@@H]4[C@@]5(C)CCC(=O)C(C)(C)[C@@H]5CC[C@@]4(C)[C@]3(C)CC[C@@]2(C(=O)O)CC1 [MORONIC ACID]: 13.1
CC(=O)O[C@@H]1CC[C@]2(C)[C@H]3CC[C@@H]4C5=CC(C)(C)CC[C@]5(C(=O)O)CC[C@@]4(C)[C@]3(C)CC[C@H]2C1(C)C: 15.3

// next item, IC50 requested
Input: # query: IC50 of entry CC1(C)CC[C@]2(C(=O)O)CC[C@]3(C)C(=CC[C@@H]4[C@@]5(C)CC[C@H](O)C(C)(C)[C@@H]5CC[C@]43C)[C@@H]2C1 [OLEANOLIC_ACID]
Output: 8
